All values here come from patent US20230228736A1.

# TESTED ON: HBV core protein (Hepatitis B virus genotype D subtype ayw, UniProt P03146)
# Construct: withdrawal of doxycycline from the cell culture medium which results in expression of core and polymerase HBV proteins; expressed in transfected cells; host or cells: HepG2.117 (human hepatoma-derived, stably transfected with the HBV genome, Tet-off)
# Sequence (P03146 whole entry): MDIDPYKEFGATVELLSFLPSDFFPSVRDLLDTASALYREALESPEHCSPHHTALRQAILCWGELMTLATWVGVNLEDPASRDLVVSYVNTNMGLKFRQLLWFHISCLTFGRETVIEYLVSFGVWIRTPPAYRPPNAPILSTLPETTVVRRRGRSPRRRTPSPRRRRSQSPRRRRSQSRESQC
# ASSAY PROTOCOL: Cellular HBV core high-content imaging assay (cytosolic and nuclear aggregated core / core speckling)
# Format: cell-based
# CONDITION DESCRIPTION: HepG2.117 cells, 72 h, median over inter-/intra-assay plate groups; read-out: Nuclear aggregated core Median EC50 (μM) (Range)
MEASURE: EC50 (µM)
// return numeric value only (unit: µM, not printed)

Requested field: EC50. Item: COC(=O)C1=C(CN2CCOCC2)NC(c2ccccn2)=NC1c1ccc(F)cc1Cl (stereo not shown) [Compound 5]
0.085
